tested on: Penicillium chrysogenum; test: Antifungal activity against Penicillium chrysogenum at 100 ug/well after 48 hrs by agar well diffusion method; assay type: functional; conditions: read-out: DIZ
ASSAY ENDPOINT: zone of inhibition at 100 µg/disc (mm)
State just the number; it will be interpreted in mm.

Provide zone of inhibition at 100 µg/disc, tested on Penicillium chrysogenum, for COc1ccc(-c2noc(-c3ccc(-c4onc(-c5ccc(OC)cc5)c4S(=O)(=O)c4ccc(Cl)cc4)cc3)c2S(=O)(=O)c2ccc(Cl)cc2)cc1 .
30

Quote zone of inhibition at 100 µg/disc with test system Penicillium chrysogenum for CC(=O)N1CCN(c2ccc(OCC3COC(Cn4ccnc4)(c4ccc(Cl)cc4Cl)O3)cc2)CC1 (configuration not stated)
38

Name the recorded zone of inhibition at 100 µg/disc of COc1ccc(-c2nn(-c3ccccc3)c(-c3ccc(-c4c(S(=O)(=O)c5ccc(C)cc5)c(-c5ccc(OC)cc5)nn4-c4ccccc4)cc3)c2S(=O)(=O)c2ccc(C)cc2)cc1 , assay system Penicillium chrysogenum.
24

Provide zone of inhibition at 100 µg/disc, tested on Penicillium chrysogenum, for COc1ccc(-c2noc(-c3ccc(-c4onc(-c5ccc(OC)cc5)c4S(=O)(=O)c4ccccc4)cc3)c2S(=O)(=O)c2ccccc2)cc1 .
29

Given COc1ccc(-c2nn(-c3ccccc3)c(-c3ccc(-c4c(S(=O)(=O)c5ccccc5)c(-c5ccc(OC)cc5)nn4-c4ccccc4)cc3)c2S(=O)(=O)c2ccccc2)cc1 , report its zone of inhibition at 100 µg/disc on Penicillium chrysogenum.
25

Supply zone of inhibition at 100 µg/disc measured with Penicillium chrysogenum for O=S(=O)(c1ccccc1)c1c(-c2ccc(Cl)cc2)noc1-c1ccc(-c2onc(-c3ccc(Cl)cc3)c2S(=O)(=O)c2ccccc2)cc1 .
36

State zone of inhibition at 100 µg/disc on Penicillium chrysogenum. Entry: COc1ccc(C2=NN(c3ccccc3)C(c3ccc(C4C(S(=O)(=O)c5ccc(C)cc5)C(c5ccc(OC)cc5)=NN4c4ccccc4)cc3)C2S(=O)(=O)c2ccc(C)cc2)cc1 (configuration not stated)
13
